Just for reference, PubChem BioAssay AID449762 is where these values come from.

- ASSAY: M. tuberculosis growth inhibition, HTS (AID 449762);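 further: bacterial growth assessed after seven days of incubation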
- SETTINGS: M. tuberculosis H37Rv growth inhibition, 7H9 media; at 25 µM; active compounds read high
The campaign covered roughly 330,000 compounds. About 1,900 (0.58%) were called active. Not shown: some 4% with an inconclusive outcome. Only a sample is shown. Results with a measured potency or affinity are listed apart.
QUANTITY: inhibition (%)
One number for each entry, in %.

Reference set, count: 5
# MOLECULE, UNITS TEXT, inhibition
records = [
    ("C=C1c2cccc(O)c2C(O)=C2C(=O)[C@]3(O)C(O)=C(C(N)=O)C(=O)[C@@H](N(C)C)[C@@H]3[C@@H](O)[C@H]12", "%", 69.5),
    ("CCOC(=O)c1ccc(Oc2nc(N(C)C)nc(N(C)C)n2)cc1", "%", 17),
    ("c1coc(CNc2c3c(nc4ncnn24)CCCC3)c1", "%", -6.82),
    ("COC(=O)c1ccsc1NC(=O)CCS(=O)(=O)c1ccc(Cl)cc1", "%", -2.4),
    ("COc1ccc2c([N+](=O)[O-])c(Cl)[nH]c2c1", "%", -1.29),
]

Return reported inhibition values for all items listed beneath this line.
1. Nc1ccc(-c2nc3c(ccc4ccccc43)[nH]2)cc1
2. CCn1ccc(C(=O)Nc2ccc3c(c2)CCC3)n1
3. CN(C)[C@@H]1C(=O)C(C(N)=O)=C(O)[C@@]2(O)C(=O)C3=C(O)c4c(O)cccc4[C@@](C)(O)[C@H]3[C@H](O)[C@@H]12
4. CN(C)[C@@H]1C(=O)C(C(N)=O)=C(O)[C@@]2(O)C(=O)C3=C(O)c4c(O)cccc4[C@@](C)(O)[C@H]3C[C@@H]12
5. COc1cc2[nH]c3c(Cl)ncnc3c2cc1OC
6. CCCCCCn1nc(C(=O)OCC(=O)c2c(N)n(C)c(=O)n(C)c2=O)c2ccccc2c1=O
7. c1cncc(-c2nc3c(ccc4ccccc43)[nH]2)c1

a:
1. 6.07
2. -10.2
3. 31.9
4. 22.5
5. -3.36
6. 9.07
7. -6.09

Return reported inhibition values for all items listed beneath this line.
1. COc1ccc(C2/C(=C(/O)c3ccc(F)cc3)C(=O)C(=O)N2CCCN2CCOCC2)cc1OC (configuration not stated)
2. CCCCSc1nnc([C@H](CC(C)C)NC(=O)OC(C)(C)C)o1
3. O=C1NCN(c2ccccc2)C12CCNCC2
4. COc1ccccc1Cn1c(=S)[nH]c2cc(C(=O)NCC3CCCO3)ccc2c1=O (configuration not stated)
5. Nc1ncc([N+](=O)[O-])s1
6. CC(C)OCCCn1c(-c2ccco2)nc2nc3ccccc3nc21
7. CCCCCn1c(-c2ccco2)nc2nc3ccccc3nc21

a:
1. -2.8
2. -2.58
3. -2.9
4. 2.37
5. -0.165
6. 0.09
7. 16.5

Return reported inhibition values for all items listed beneath this line.
1. CC(C)C[C@H](NC(=O)OC(C)(C)C)c1nnc(SCc2ccccc2)o1
2. CCOC(=O)c1ccc(Oc2nc(OC)nc(N(C)C)n2)cc1
3. CC1(C)CCC[C@]2(C)[C@H]3Cc4cc(O)ccc4O[C@]3(C)CC[C@@H]12

a:
[-3.57, 4.44, 6.49]
